Origin of the recorded values: paper PMC4086246

Protein target, amino acids: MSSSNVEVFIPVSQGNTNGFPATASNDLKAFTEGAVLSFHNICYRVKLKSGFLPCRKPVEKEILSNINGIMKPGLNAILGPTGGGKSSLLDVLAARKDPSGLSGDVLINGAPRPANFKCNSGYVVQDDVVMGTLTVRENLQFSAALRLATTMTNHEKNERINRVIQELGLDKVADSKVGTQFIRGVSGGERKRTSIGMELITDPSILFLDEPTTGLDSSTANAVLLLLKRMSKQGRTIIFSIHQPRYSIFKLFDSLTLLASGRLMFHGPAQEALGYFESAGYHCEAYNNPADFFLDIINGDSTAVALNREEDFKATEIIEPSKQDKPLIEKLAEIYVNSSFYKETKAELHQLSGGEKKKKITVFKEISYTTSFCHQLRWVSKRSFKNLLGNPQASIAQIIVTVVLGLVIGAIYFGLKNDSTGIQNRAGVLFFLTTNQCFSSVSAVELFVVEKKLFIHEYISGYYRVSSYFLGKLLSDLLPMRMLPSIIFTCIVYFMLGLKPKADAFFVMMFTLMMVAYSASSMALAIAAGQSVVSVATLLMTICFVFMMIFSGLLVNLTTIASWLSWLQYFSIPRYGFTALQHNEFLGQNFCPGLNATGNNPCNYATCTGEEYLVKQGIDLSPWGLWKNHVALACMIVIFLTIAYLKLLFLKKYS
readout: IC50
Mention the unit after the number when you answer.

[in] What measured IC50 goes with C[C@@H]1COC(Nc2ccc3ncnc(Nc4ccc(OCc5nccs5)c(Cl)c4)c3c2)=N1 ?
[out] 3.7 µM
